Reference for the values: ChEMBL document CHEMBL1926517

# method.notes: Cytotoxicity against rat PC12 cells assessed as cell viability at 1 uM after 24 hrs by MTT assay
# Type: cell-based, PC-12
# condition.details: read-out: Activity
readout.kind: viability at 24 h, 1 µM (%)

[
  {
    "compound": "CN[C@@H]1C[C@H]2O[C@@](C)([C@@H]1OC)n1c3ccccc3c3c4c(c5c6ccccc6n2c5c31)C(=O)NC4 [STAUROSPORINE]",
    "readout.kind": "viability at 24 h, 1 µM",
    "unit.of.measure": "%",
    "quantitative.result": 100
  }
]

* * *

# Tested on: PC-12
# method.notes: Neuroprotective activity in rat PC12 cells assessed as inhibition of amyloid-beta (1 to 42)-induced cell death after 24 hrs by MTT assay
# Format: functional, cell-based
Residues, ends and D or L forms follow the SMILES beside them.

[
  {
    "molecule": "CC[C@H](C)[C@H](NC(=O)[C@@H](NC(=O)[C@@H](N)C(C)C)C(C)C)C(=O)N[C@@H](C)C(N)=O (H-VVIA-NH2)",
    "Activity": "Dose-dependent effect"
  },
  {
    "molecule": "CC[C@H](C)[C@H](NC(=O)[C@H](C)NC(=O)[C@@H](N)C(C)C)C(=O)N[C@@H](C)C(=O)O (H-VAIA-OH)",
    "Activity": "Dose-dependent effect"
  },
  {
    "molecule": "CC[C@H](C)[C@H](NC(=O)[C@@H](NC(=O)[C@H](C)N)C(C)C)C(=O)N[C@@H](C)C(=O)O (H-AVIA-OH)",
    "Activity": "Dose-dependent effect"
  },
  {
    "molecule": "CC[C@H](C)[C@H](NC(=O)[C@@H](NC(=O)[C@@H](N)C(C)C)C(C)C)C(=O)N[C@@H](C)C(=O)O",
    "Activity": "Dose-dependent effect"
  },
  {
    "molecule": "CC[C@H](C)[C@H](NC(=O)[C@H](C)N)C(=O)N[C@H](C(=O)N[C@H](C(=O)O)C(C)C)C(C)C (H-AIVV-OH)",
    "Activity": "Dose-dependent effect"
  },
  {
    "molecule": "CC[C@H](C)[C@H](NC(=O)[C@H](C)N)C(=O)N[C@H](C(=O)N[C@H](C(N)=O)C(C)C)C(C)C (H-AIVV-NH2)",
    "Activity": "Dose-dependent effect"
  }
]
